Where these numbers come from: patent US7262185B2

endpointLabel: melting point

[[record]]
compound = "CCCCOCCOc1ccc(-c2ccc3c(c2)C=C(C(=O)Nc2ccc(SCc4nncn4CCC)c(C)c2)CCN3CC(C)C)cc1"
recordedmeasurement = "104 to 107 °C"

[[record]]
compound = "CCCCOCCOc1ccc(-c2ccc3c(c2)C=C(C(=O)Nc2ccc([S+]([O-])Cc4nncn4C)cc2)CCN3CCC)cc1 (centres unmarked)"
recordedmeasurement = "101 to 103 °C"

[[record]]
compound = "CCCCOCCOc1ccc(-c2ccc3c(c2)C=C(C(=O)Nc2ccc(C(O)c4cccc[n+]4[O-])c(Cl)c2)CCN3CC(C)C)cc1 (centres unmarked)"
recordedmeasurement = "105 to 107 °C"

[[record]]
compound = "CCCCOCCOc1ccc(-c2ccc3c(c2)C=C(C(=O)Nc2ccc([C@H](O)c4ccccn4)cc2)CCN3C=O)cc1"
recordedmeasurement = "130 to 134 °C"

[[record]]
compound = "CCCCOCCOc1ccc(-c2ccc3c(c2)C=C(C(=O)Nc2ccc([S+]([O-])Cc4nnc(C)c(C)n4)cc2)CCN3CC(C)C)cc1 (centres unmarked)"
recordedmeasurement = "178 to 183 °C (dec.)"

[[record]]
compound = "CCCCOCCOc1ccc(-c2ccc3c(c2)C=C(C(=O)Nc2ccc(C(O)c4c(C)ccc[n+]4[O-])cc2)CCN3C(=O)C(F)(F)F)cc1 (centres unmarked)"
recordedmeasurement = "109 to 112 °C"


Report melting point for CCCCOCCOc1ccc(-c2ccc3c(c2)C=C(C(=O)Nc2ccc([S+]([O-])Cc4nccn4CCCC(=O)NC)cc2)CCN3CC(C)C)cc1 (centres unmarked) please.
159 to 161 °C

Similarly, CCCCOCCOc1ccc(-c2ccc3c(c2)C=C(C(=O)Nc2ccc([S+]([O-])Cc4nncn4CC)cc2)CCN3CC(C)C)cc1 (centres unmarked) ?
102 to 104 °C

###

Overview of reported melting point across a group of compounds:

# annotated cases, reported melting point shown
[[record]]
compound = "CCCCOCCOc1ccc(-c2ccc3c(c2)C=C(C(=O)Nc2ccc([C@H](O)c4cccc[n+]4[O-])cc2)CCN3Cc2ccccc2)cc1 [Compound 90]"
endpointlabel = "melting point"
recordedmeasurement = "89 to 93 °C"

[[record]]
compound = "CCCCOCCOc1ccc(-c2ccc3c(c2)C=C(C(=O)Nc2ccc([S+]([O-])Cc4nncn4CCC)nc2)CCN3CC(C)C)cc1 (stereo not drawn) [Compound 54]"
endpointlabel = "melting point"
recordedmeasurement = "135 to 138 °C"

[[record]]
compound = "CCCCOCCOc1ccc(-c2ccc3c(c2)C=C(C(=O)Nc2ccc([C@H](O)c4cccc[n+]4[O-])cc2)CCN3Cc2cc(C)ns2)cc1 [Compound 92]"
endpointlabel = "melting point"
recordedmeasurement = "93 to 96 °C"


Report melting point for CCCCOCCOc1ccc(-c2ccc3c(c2)C=C(C(=O)Nc2ccc([C@H](O)c4cccc[n+]4[O-])cc2)CCN3Cc2ccnn2C)cc1 [Compound 89] please.
109 to 111 °C

Then CCCCOCCOc1ccc(-c2ccc3c(c2)C=C(C(=O)Nc2ccc(SCc4ncon4)cc2)CCN3CC(C)C)cc1 [Compound 128] ?
112 to 115 °C

Param item: CCCCOCCOc1ccc(-c2ccc3c(c2)C=C(C(=O)Nc2ccc([S+]([O-])Cc4nncn4CCCC)cc2)CCN3CCC)cc1 (stereo not drawn) [Compound 145]
157 to 160 °C
